- Tested on: HeLa
- test-method-notes: cells
- measurement-parameters: Homo sapiens, 4 h
assay-endpoint: IC50
Provide the measurement as a number trailed by its unit.

Record summary for COc1cc(S(C)(=O)=O)ccc1Nc1nc2ccc(-c3ccc(NC(=O)[C@H](C)c4ccc(F)cc4)cc3)cn2n1 [BAY-1161909] : reported IC50 = 56 nM

###

- test-method-notes: Antiproliferative activity against human NCI-H2110 cells assessed as cell growth inhibition incubated for 96 hrs by crystal violet staining
- measurement-parameters: NCI-H2110, 96 h
assay-endpoint: pIC50
Recall that pIC50 is obtained by taking minus log10 of the concentration measured in molar.

Lab note: measured pIC50 of COc1cc(S(C)(=O)=O)ccc1Nc1nc2ccc(-c3ccc(NC(=O)[C@H](C)c4ccc(F)cc4)cc3)cn2n1 was 6.55
